Source listed as patent US20040142888A1.

Test system: C. elegans germline
testProtocol: Apoptosis in the C. elegans germline (apoptotic corpses per germline arm), after compound and/or RNAi treatment
Format: in vivo
details: wild-type worms, compound 1.5 mM
measuredQuantity: Frequency: germline arms with 4 apoptotic corpses

Guide cases for Frequency: germline arms with 4 apoptotic corpses, answers given:
N#Cc1ccc2c(c1)CN(S(=O)(=O)N1CCCCC1)[C@H](Cc1ccccc1)CN2Cc1cnc[nH]1 [Compound 7B] : 0
Cn1cncc1CN1C[C@@H](Cc2ccccc2)N(S(=O)(=O)c2cccs2)Cc2cc(C#N)ccc21 [Compound 7J] : 4
CCCS(=O)(=O)N1Cc2cc(C#N)ccc2N(Cc2cnc[nH]2)C[C@H]1Cc1ccccc1 [Compound 7H] : 2
COc1ccc(S(=O)(=O)N2Cc3cc(C#N)ccc3N(Cc3cncn3C)C[C@H]2Cc2ccccc2)cc1 [Compound 7I] : 2

Could you now look at the following molecule, please?
Any idea what Frequency: germline arms with 4 apoptotic corpses came out for COc1ccc(S(=O)(=O)N2Cc3cc(C#N)ccc3N(Cc3cnc[nH]3)C[C@H]2Cc2ccccc2)cc1 [Compound 7A] on C. elegans germline? 0

###

measurementTarget: rat RabGGT (Rattus norvegicus, UniProt Q08602+Q08603)
Construct: purchased Calbiochem 345855; host or cells: Sf9/baculovirus
Sequence (Q08602 1-567): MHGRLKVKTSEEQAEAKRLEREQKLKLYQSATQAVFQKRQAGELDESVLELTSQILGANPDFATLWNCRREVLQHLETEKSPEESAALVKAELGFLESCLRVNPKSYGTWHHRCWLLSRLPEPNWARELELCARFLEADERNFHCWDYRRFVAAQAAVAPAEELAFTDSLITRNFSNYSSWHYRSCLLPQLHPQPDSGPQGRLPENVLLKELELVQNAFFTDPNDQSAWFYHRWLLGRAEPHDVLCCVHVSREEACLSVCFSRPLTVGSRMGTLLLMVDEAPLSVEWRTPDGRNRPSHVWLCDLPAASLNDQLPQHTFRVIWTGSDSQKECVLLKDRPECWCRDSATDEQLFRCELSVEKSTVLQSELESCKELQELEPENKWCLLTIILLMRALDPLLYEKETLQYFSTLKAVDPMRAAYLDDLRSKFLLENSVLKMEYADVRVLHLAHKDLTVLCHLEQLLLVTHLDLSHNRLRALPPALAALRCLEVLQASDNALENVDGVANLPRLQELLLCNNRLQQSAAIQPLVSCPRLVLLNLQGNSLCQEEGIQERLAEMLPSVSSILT
Sequence (Q08603 1-331): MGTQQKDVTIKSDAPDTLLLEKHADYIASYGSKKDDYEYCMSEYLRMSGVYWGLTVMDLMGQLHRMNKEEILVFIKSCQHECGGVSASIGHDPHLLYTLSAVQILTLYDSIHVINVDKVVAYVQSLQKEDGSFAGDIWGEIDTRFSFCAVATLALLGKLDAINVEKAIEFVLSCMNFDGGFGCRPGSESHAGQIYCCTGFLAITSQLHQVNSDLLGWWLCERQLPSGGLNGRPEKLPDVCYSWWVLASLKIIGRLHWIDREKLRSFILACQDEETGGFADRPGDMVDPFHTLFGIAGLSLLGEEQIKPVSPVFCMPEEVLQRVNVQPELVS
testProtocol: RabGGT filter binding assay: transfer of (3H)geranylgeranyl from 3H-GGPP to recombinant Rab3A
Format: biochemical
details: recombinant rat RabGGT, Rab3A, REP-1, 30 minute at 37° C.
measuredQuantity: pIC50
Numbers only, as −log10 of the molar value.

Guide cases for pIC50, answers given:
CCCS(=O)(=O)N1Cc2cc(C#N)ccc2N(Cc2cnc[nH]2)C[C@H]1Cc1ccccc1 : 7.68
C=C(C)CN(C1Cc2cc(C#N)ccc2N(Cc2cncn2C)C1)S(=O)(=O)N1CC=CC1 (stereo not shown) : 7.24
Cn1cncc1CN1CC(N(CC(=O)OC(C)(C)C)S(=O)(=O)c2ccccn2)Cc2cc(C#N)ccc21 (stereo not shown) : 6.27

Any idea what pIC50 came out for N#Cc1ccc2c(c1)CN(S(=O)(=O)N1CCCCC1)[C@H](Cc1ccccc1)CN2Cc1cnc[nH]1 on rat RabGGT (Rattus norvegicus, UniProt Q08602+Q08603)? 7.68

###

Field: Frequency: germline arms with 2 apoptotic corpses. Provide a value for each of the molecules that follow.
Tested on: C. elegans germline
testProtocol: Apoptosis in the C. elegans germline (apoptotic corpses per germline arm), after compound and/or RNAi treatment
Assay type: in vivo
details: wild-type worms, compound 1.5 mM
One number for each entry.

Guide cases for Frequency: germline arms with 2 apoptotic corpses, answers given:
N#Cc1ccc2c(c1)CN(S(=O)(=O)N1CCCCC1)[C@H](Cc1ccccc1)CN2Cc1cnc[nH]1 : 1
COc1ccc(S(=O)(=O)N2Cc3cc(C#N)ccc3N(Cc3cnc[nH]3)C[C@H]2Cc2ccccc2)cc1 : 2
Cn1cncc1CN1C[C@@H](Cc2ccccc2)N(S(=O)(=O)c2cccs2)Cc2cc(C#N)ccc21 : 1

Bench note: what Frequency: germline arms with 2 apoptotic corpses did COc1ccc(S(=O)(=O)N2Cc3cc(C#N)ccc3N(Cc3cncn3C)C[C@H]2Cc2ccccc2)cc1 show? 3

###

Test system: HCT-116 human colon tumor cells
testProtocol: Compound-induced apoptosis in HCT-116 human colon tumor cells (microscopy for morphological markers)
Format: cell-based
details: HCT-116, minimum concentration required to achieve apoptosis of 50% of the HCT116 cells (Table 7), read-out: HCT116 50% apoptosis
Field: EC50. Provide a value for each of the compounds that follow.
Give bare numbers, in µM.

Guide cases for EC50, answers given:
COc1ccc(S(=O)(=O)N2Cc3cc(C#N)ccc3N(Cc3cnc[nH]3)C[C@H]2Cc2ccccc2)cc1 [Compound 7A] : 3.3
Cn1cc(S(=O)(=O)N(Cc2ccsc2)C2Cc3cc(C#N)ccc3N(Cc3cncn3C)C2)cn1 (centres unmarked) [Compound 7N] : 3.3
CCCS(=O)(=O)N1Cc2cc(C#N)ccc2N(Cc2cnc[nH]2)C[C@H]1Cc1ccccc1 [Compound 7H] : 0.37

For every item in the list below, what is its measured EC50?
1. C=C(C)CN(C1Cc2cc(C#N)ccc2N(Cc2cncn2C)C1)S(=O)(=O)N1CC=CC1 (centres unmarked) [Compound 7O]
2. Cn1cncc1CN1CC(NS(=O)(=O)c2ccccn2)Cc2cc(C#N)ccc21 (centres unmarked) [Compound 7S]

[10, 50]

###

measurementTarget: Farnesyl Transferase (FT) (Homo sapiens, UniProt P49354+P49356)
testProtocol: Biochemical assay for inhibition of farnesyl transferase (FT)
measuredQuantity: pIC50
Give bare numbers, as −log10 of the molar value.

Guide cases for pIC50, answers given:
Cn1cncc1CN1CC(N(Cc2ccsc2)S(=O)(=O)c2ccccn2)Cc2cc(C#N)ccc21 (centres unmarked) : 9.15
Cn1cncc1CN1CC(NS(=O)(=O)c2ccccn2)Cc2cc(C#N)ccc21 (centres unmarked) : 7.81
Cn1cncc1CN1C[C@@H](Cc2ccccc2)N(S(=O)(=O)c2cccs2)Cc2cc(C#N)ccc21 : 9.10
C=C(C)CN(C1Cc2cc(C#N)ccc2N(Cc2cncn2C)C1)S(=O)(=O)N1CC=CC1 (centres unmarked) : 8.85
Cn1cc(S(=O)(=O)N(Cc2ccsc2)C2Cc3cc(C#N)ccc3N(Cc3cncn3C)C2)cn1 (centres unmarked) : 9.15

For every item in the list below, what is its measured pIC50?
1. Cn1cnc(S(=O)(=O)N(Cc2ccsc2)C2Cc3cc(C#N)ccc3N(Cc3cncn3C)C2)c1 (centres unmarked)
2. COc1ccc(S(=O)(=O)N2Cc3cc(C#N)ccc3N(Cc3cnc[nH]3)C[C@H]2Cc2ccccc2)cc1

9.22
8.62

Bench note: what pIC50 did CCCS(=O)(=O)N1Cc2cc(C#N)ccc2N(Cc2cnc[nH]2)C[C@H]1Cc1ccccc1 show? 8.39

###

measurementTarget: rat RabGGT (Rattus norvegicus, UniProt Q08602+Q08603)
Construct: purchased Calbiochem 345855; host or cells: Sf9/baculovirus
testProtocol: RabGGT filter binding assay: transfer of (3H)geranylgeranyl from 3H-GGPP to recombinant Rab3A
Assay type: biochemical
details: recombinant rat RabGGT, Rab3A, REP-1, 30 minute at 37° C.
measuredQuantity: IC90 (µM)
Give bare numbers, in µM.

For every item in the list below, what is its measured IC90?
1. Cn1cncc1CN1CC(NS(=O)(=O)c2ccccn2)Cc2cc(C#N)ccc21 (centres unmarked)
2. Cn1cncc1CN1C[C@@H](Cc2ccccc2)N(S(=O)(=O)c2cccs2)Cc2cc(C#N)ccc21

1: 1.4; 2: 0.058

For every item in the list below, what is its measured IC90?
1. CCCS(=O)(=O)N1Cc2cc(C#N)ccc2N(Cc2cnc[nH]2)C[C@H]1Cc1ccccc1
2. Cn1cncc1CN1CC(N(Cc2ccsc2)S(=O)(=O)c2ccccn2)Cc2cc(C#N)ccc21 (centres unmarked)
3. COc1ccc(S(=O)(=O)N2Cc3cc(C#N)ccc3N(Cc3cncn3C)C[C@H]2Cc2ccccc2)cc1

[0.115, 2.16, 0.093]

###

Tested on: HCT-116 human colon tumor cells
testProtocol: Compound-induced apoptosis in HCT-116 human colon tumor cells (microscopy for morphological markers)
Format: cell-based
details: HCT-116, 48 h, HCT116 cells, 48 hours, minimal concentration inducing apoptotic morphological changes in 50% of treated cells, read-out: 50% APOPTOTIC
Field: log10 EC50. Provide a value for each of the compounds that follow.
Friendly reminder: values = log10 of EC50, unit µM.

Cn1cncc1CN1CC(NS(=O)(=O)c2ccccn2)Cc2cc(C#N)ccc21 (centres unmarked) : 1.70
Cn1cncc1CN1CC(N(CC(=O)OC(C)(C)C)S(=O)(=O)c2ccccn2)Cc2cc(C#N)ccc21 (centres unmarked) : 1.48
Cn1cncc1CN1C[C@@H](Cc2ccccc2)N(S(=O)(=O)c2cccs2)Cc2cc(C#N)ccc21 : 0.40
COc1ccc(S(=O)(=O)N2Cc3cc(C#N)ccc3N(Cc3cnc[nH]3)C[C@H]2Cc2ccccc2)cc1 : 0.57
Cn1cncc1CN1CC(N(Cc2ccsc2)S(=O)(=O)c2ccccn2)Cc2cc(C#N)ccc21 (centres unmarked) : 1.40
C=C(C)CN(C1Cc2cc(C#N)ccc2N(Cc2cncn2C)C1)S(=O)(=O)N1CC=CC1 (centres unmarked) : 1.00
Cn1cc(S(=O)(=O)N(Cc2ccsc2)C2Cc3cc(C#N)ccc3N(Cc3cncn3C)C2)cn1 (centres unmarked) : 0.57

Could you now look at the following compound, please?
Bench note: what log10 EC50 did N#Cc1ccc2c(c1)CN(S(=O)(=O)N1CCCCC1)[C@H](Cc1ccccc1)CN2Cc1cnc[nH]1 show? -0.43
